- assayOverview: Estimated solubility measurement in selected solvents at room temperature
- Type: physicochemical
- measurementContext: organic solvent or mixture, thermodynamic from solid, THF
assayMetric: solubility

# compound, assayMetric, result
data = [
    ("CC(C)c1cnn2ccc(-c3ccnc(Nc4ccc(N5CC[C@H](N(C)C)CC5=O)cn4)n3)cc12 [Compound (I)]", "solubility", "~20 mg/mL"),
]
